Entry source: ChEMBL document CHEMBL1821697

- measurement.target: Mitogen-activated protein kinase 10 (Homo sapiens, UniProt P53779)
- Sequence (P53779 whole entry): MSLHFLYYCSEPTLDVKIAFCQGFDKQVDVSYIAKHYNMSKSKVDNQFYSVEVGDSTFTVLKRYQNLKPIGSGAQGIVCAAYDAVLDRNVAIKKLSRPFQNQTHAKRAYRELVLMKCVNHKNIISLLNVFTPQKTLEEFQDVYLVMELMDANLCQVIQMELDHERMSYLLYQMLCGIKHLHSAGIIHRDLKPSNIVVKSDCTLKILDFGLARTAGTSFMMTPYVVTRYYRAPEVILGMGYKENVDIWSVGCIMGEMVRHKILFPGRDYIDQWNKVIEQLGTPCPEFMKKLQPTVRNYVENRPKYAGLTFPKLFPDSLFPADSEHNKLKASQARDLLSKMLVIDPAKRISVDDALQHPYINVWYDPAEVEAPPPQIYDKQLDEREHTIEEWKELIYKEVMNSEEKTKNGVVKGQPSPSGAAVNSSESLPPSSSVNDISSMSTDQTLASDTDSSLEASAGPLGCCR
- assay.procedure: Inhibition of recombinant JNK3 using ser73 of c-jun as substrate preincubated for 15 mins measured after 60 mins by TR-FRET assay
recorded.metric: IC50 (nM)
Numeric only. Scale: nM

{"mol": "O=C(Cn1c(=O)ccn2nccc12)Nc1scc(Br)c1-c1ncn[nH]1", "IC50 / nM": 8}

Looking up O=C(Cn1c(=O)ccc2cc(F)c(F)cc21)Nc1scc(Br)c1-c1ncn[nH]1 , I see its IC50 listed as 5

* * *

- assay.procedure: AUC in mouse brain at 1 mg/kg, iv
- Assay type: ADME, organism-based
- Parameters: dose 1 mg/kg, route intravenous
recorded.metric: AUC (ng·h/mL)
Report as a plain number; the unit ng·h/mL is understood.

{"mol": "O=C(Cn1c(=O)ccc2cc(C(F)(F)F)ccc21)Nc1scc(Br)c1-c1ncn[nH]1", "AUC, ng·h/mL": 235}
{"mol": "O=C(Cc1cccc2cnccc12)Nc1scc(Cl)c1-c1ncn[nH]1", "AUC, ng·h/mL": 88}
{"mol": "O=C(CN1C(=O)CCc2ncccc21)Nc1scc(Br)c1-c1ncn[nH]1", "AUC, ng·h/mL": 35}

Entry O=C(Cn1c(=O)ccc2cc(F)c(F)cc21)Nc1scc(Br)c1-c1ncn[nH]1 , AUC reported as 160

* * *

- assay.procedure: Oxidative metabolic stability in rat liver microsomes assessed as compound remaining at 1 uM after 30 mins
- Type: ADME, Microsome
- setup.conditions: read-out: Stability
Doc: threshold 20% (exclusive). Items with remaining at 0.5 h, 1 µM beneath it return YES; others return NO.

{"mol": "N#Cc1ccc2ccc(=O)n(CC(=O)Nc3scc(Br)c3-c3ncn[nH]3)c2c1", "classification": "NO"}
{"mol": "O=C(Cc1ccc(C(F)(F)F)c2ncccc12)Nc1scc(Cl)c1-c1ncn[nH]1", "classification": "YES"}

Incoming: Please state whether remaining at 0.5 h, 1 µM is below 20% for N#Cc1csc(NC(=O)Cn2c(=O)ccc3cc(C(F)(F)F)ccc32)c1-c1nccs1
Outgoing: NO

Incoming: Consider the molecule O=C(Cc1cc(C(F)(F)F)cc2ncccc12)Nc1scc(Br)c1-c1nnc[nH]1 . Is its remaining at 0.5 h, 1 µM strictly less than 20%?
Outgoing: YES

Incoming: Please check: remaining at 0.5 h, 1 µM for N#Cc1csc(NC(=O)CN2C(=O)CCc3ncccc32)c1-c1nccs1 , strictly under 20% or not?
Outgoing: YES

* * *

- assay.procedure: Oxidative metabolic stability in mouse liver microsomes assessed as compound remaining at 1 uM after 30 mins
- Assay type: ADME, Microsome
- setup.conditions: read-out: Stability
recorded.metric: remaining at 0.5 h, 1 µM
# include the unit after the value

Known results for compounds:
{"mol": "O=C(Cn1c(=O)ccn2nccc12)Nc1scc(Br)c1-c1ncn[nH]1", "remaining at 0.5 h, 1 µM": "50%"}
{"mol": "O=C(Cn1c(=O)ccc2cc(F)c(F)cc21)Nc1scc(Br)c1-c1ncn[nH]1", "remaining at 0.5 h, 1 µM": "14%"}
{"mol": "Cn1cnc(-c2c(Br)csc2NC(=O)CN2C(=O)CCc3ncccc32)n1", "remaining at 0.5 h, 1 µM": "33%"}

Then this compound:
get_value(item= N#Cc1csc(NC(=O)CN2C(=O)CCc3ncccc32)c1-c1nc[nH]n1 , readout=remaining at 0.5 h, 1 µM) returns 84%
